Molecular target: recombinant human Meningioma Expressed Antigen 5 (MGEA5), also referred to as O-GlcNAcase (OGA) (Homo sapiens, UniProt O60502)
Construct: Full length OGA enzyme was purchased at OriGene (cat #TP322411); purchased OriGene TP322411
Sequence (O60502 whole entry): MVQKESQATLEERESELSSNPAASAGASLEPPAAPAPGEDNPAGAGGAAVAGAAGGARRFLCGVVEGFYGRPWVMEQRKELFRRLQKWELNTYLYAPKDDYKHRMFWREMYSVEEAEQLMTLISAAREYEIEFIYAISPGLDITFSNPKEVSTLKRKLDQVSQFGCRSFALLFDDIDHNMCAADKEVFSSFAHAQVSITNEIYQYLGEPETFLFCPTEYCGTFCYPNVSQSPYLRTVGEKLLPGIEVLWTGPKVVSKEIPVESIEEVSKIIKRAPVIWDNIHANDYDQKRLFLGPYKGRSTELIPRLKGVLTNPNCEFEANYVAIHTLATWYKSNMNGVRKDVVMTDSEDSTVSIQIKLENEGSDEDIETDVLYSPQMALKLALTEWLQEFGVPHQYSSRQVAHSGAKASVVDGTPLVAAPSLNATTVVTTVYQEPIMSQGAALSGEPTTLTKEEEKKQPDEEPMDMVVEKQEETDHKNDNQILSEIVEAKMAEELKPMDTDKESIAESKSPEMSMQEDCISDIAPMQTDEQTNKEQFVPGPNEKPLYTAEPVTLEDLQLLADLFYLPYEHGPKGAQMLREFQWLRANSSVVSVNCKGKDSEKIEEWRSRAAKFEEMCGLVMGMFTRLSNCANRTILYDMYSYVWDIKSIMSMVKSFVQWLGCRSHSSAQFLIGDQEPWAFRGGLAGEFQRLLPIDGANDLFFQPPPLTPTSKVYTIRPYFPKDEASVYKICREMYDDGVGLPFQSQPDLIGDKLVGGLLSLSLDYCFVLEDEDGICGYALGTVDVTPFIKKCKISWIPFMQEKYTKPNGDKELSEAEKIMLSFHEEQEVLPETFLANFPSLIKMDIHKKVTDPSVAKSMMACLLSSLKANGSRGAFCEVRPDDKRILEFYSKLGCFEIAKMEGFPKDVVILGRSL
Assay: OGA biochemical assay (inhibition of FM-GlcNAc hydrolysis, fluorescence)
Conditions: read-out: Enzymatic hOGA, pIC50 (converted)
Below, each entry is listed alongside its reported IC50.
readout kind: IC50 (nM)

>>> print(df.to_string())
                                   compound  value_comparator  observed_value
0  Cc1cc(OC2CCN([C@@H](C)c3ccc4c(n3)OCC4)CC2)cc(C)n1 (single isomer, unassigned)                 =            1000
1  C[C@@H](c1ccc2c(n1)OCCO2)N1CCC(Oc2ccc(C(N)=O)nn2)CC1 (single isomer, unassigned)                 =             126
2  Cc1cc(OC2CCN(C(C)c3ccc4c(n3)OCCO4)CC2)cc(C)n1 (single isomer, unassigned) [Compound 2]                 >           10000
3  COc1nccnc1OC1CCN(C(C)c2ccc3c(n2)OCCO3)CC1 (stereo not shown)                 =             631
4  Cc1cc(OC2CCN(C(C)c3ccc4sc(C)nc4n3)CC2)cc(C(F)(F)F)n1 (stereo not shown)                 =            50.1
5  Cc1cc(OC2CCN(C(C)c3ccc4c(n3)OCCO4)CC2)c(F)c(C)n1 (stereo not shown)                 =             100
6  Cc1cc(O[C@H]2CCN(C(C)c3ccc4c(n3)OCCO4)C[C@H]2C)cc(C)n1 (stereo partly shown)                 =              10
